- Target Entity: BCRP (Homo sapiens)
- Sequence (Q9UNQ0 whole entry): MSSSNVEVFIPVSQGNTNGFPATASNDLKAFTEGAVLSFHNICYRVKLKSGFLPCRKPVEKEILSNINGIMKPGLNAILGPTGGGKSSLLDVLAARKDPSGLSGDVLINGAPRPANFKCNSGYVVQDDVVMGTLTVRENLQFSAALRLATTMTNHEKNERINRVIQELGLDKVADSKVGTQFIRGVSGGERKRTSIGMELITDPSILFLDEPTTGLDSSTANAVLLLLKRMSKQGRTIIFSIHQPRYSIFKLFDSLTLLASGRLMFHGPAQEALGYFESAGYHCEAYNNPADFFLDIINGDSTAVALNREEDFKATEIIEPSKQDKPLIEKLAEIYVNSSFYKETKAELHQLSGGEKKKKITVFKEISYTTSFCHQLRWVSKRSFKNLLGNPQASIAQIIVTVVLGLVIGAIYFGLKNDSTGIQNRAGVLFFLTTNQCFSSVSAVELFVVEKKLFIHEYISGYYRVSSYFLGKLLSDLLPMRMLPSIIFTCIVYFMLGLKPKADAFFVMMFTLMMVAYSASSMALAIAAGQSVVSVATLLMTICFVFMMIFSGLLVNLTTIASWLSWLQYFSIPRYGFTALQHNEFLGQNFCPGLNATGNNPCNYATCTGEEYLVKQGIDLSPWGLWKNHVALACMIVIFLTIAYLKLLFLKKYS
- Test Name: in vitro
- Condition Parameters: Efflux ratio (B to A)/(A to B), 3D intestinal tissue, dual inhibition with Ko143 and zosuquidar
Measure Name: efflux ratio
Answer using only a numeral; do not append any unit.

[Q] Quick check: efflux ratio of CC[C@@]1(O)C(=O)OCc2c1cc1n(c2=O)Cc2cc3c(CN(C)C)c(O)ccc3nc2-1 ?
[A] 1.4
